Below: a set of entries, each annotated with reported IC50.
Target: Hsa-GABA α2β3γ2 (Homo sapiens, UniProt P18507+P28472+P47869)
Sequence (P47869 29-451): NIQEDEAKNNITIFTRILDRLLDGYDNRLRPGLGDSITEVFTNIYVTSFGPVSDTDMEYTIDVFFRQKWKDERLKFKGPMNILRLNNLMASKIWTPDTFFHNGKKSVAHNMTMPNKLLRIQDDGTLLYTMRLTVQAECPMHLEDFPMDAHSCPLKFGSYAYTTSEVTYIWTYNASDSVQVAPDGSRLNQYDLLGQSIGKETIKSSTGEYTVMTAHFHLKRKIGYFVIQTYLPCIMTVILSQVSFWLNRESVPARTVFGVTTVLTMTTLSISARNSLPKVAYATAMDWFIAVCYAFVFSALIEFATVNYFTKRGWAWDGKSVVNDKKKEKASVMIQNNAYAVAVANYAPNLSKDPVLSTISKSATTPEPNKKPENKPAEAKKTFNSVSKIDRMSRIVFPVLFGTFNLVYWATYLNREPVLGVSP
Sequence (P28472 26-473): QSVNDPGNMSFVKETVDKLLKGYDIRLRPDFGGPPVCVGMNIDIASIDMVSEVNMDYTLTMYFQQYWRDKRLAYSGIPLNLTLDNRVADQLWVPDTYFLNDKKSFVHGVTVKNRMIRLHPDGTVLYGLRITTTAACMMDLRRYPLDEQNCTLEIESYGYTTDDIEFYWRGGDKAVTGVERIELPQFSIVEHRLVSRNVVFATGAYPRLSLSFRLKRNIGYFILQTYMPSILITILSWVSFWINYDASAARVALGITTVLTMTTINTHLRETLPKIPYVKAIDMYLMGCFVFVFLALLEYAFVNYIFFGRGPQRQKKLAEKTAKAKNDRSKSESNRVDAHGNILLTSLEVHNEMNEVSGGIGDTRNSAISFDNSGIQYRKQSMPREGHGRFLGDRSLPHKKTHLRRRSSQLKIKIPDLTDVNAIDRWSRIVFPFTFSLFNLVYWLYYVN
Sequence (P18507 40-467 isoform P18507-1 limits assumed): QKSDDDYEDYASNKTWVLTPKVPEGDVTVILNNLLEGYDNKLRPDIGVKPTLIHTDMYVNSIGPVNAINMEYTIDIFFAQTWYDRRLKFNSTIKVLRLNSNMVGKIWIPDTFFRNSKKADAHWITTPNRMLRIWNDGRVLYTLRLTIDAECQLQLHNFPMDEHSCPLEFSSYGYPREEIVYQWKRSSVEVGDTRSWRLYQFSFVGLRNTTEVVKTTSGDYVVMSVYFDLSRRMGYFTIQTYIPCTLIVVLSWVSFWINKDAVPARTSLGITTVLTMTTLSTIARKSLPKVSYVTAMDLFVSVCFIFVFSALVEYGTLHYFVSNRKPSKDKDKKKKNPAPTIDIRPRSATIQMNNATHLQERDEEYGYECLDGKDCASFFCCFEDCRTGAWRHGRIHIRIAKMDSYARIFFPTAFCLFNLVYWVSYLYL
Assay: Two-electrode voltage-clamp inhibition of GABA current, receptor expressed in Xenopus oocytes
Details: Xenopus oocytes, −80 mV, 60 s pre-exposure, co-applied with GABA 1 µM (near EC10)
The response must be a number in µM with no trailing unit.

Recall the recorded IC50 for O=C(CNC(=O)c1ccc(C2=NOC(c3cc(Cl)cc(C(F)(F)F)c3)(C(F)(F)F)C2)c2ccccc12)NCC(F)(F)F (stereo not drawn) with Hsa-GABA α2β3γ2 (Homo sapiens, UniProt P18507+P28472+P47869) and state it.
20.5

Recall the recorded IC50 for Cc1cc(C2=NOC(c3cc(Cl)cc(Cl)c3)(C(F)(F)F)C2)ccc1C(=O)NCC(=O)NCC(F)(F)F (stereo not drawn) with Hsa-GABA α2β3γ2 (Homo sapiens, UniProt P18507+P28472+P47869) and state it.
5.5
